Each recorded value in this set is attributed to the supplement of paper PMC10899765.

- System: MCF10A
- assay info: 5+ nucleoli phenotype percent effect (relative to siNT 0% and siKIF11 100%); higher = more cells with five or more nucleoli
- condition notes: 20 nM; 72 h
measured attribute: 5+ nucleoli phenotype percent effect (%)
Report only the number, with the unit % understood.

# query: 5+ nucleoli phenotype percent effect of entry UGAAGCUCUAAGGUUCCGCCUGC [hsa-miR-3928-5p]
-19.2

Next sequence up: CAAAGUGCUGUUCGUGCAGGUAG [hsa-miR-93-5p]
59.5

Can you handle GUAGCACCUUGCAGGAUAAGGU [hsa-miR-5682] next?
12.2

Same thing, different sequence: UCCGUCUCAGUUACUUUAUAGC [hsa-miR-340-3p]
26.3

Try this sequence next: ACAGCCCAGCAGUUAUCACGGG [hsa-miR-5685]
-0.657

Param item: AAUGCACCUGGGCAAGGAUUCA [hsa-miR-502-3p]
-10.4
